System: Rattus norvegicus
procedure-details: Antiinflammatory activity by Carrageenan edema assay in rats
Format: functional
Set-up: concentration or dose not given beside the values; unit not given here
metric-name: Inhibition
In your answer, state the number alone without any accompanying words.

Some solved cases for reference:
> print(dat)
                  compound.structure.string  reported.value
1  CC(C)OC(=O)n1c2cc(Cl)ccc2c2oc(C(=O)N3CCOCC3)cc21               3
2  CCCCOC(=O)n1c2cc(C(F)(F)F)ccc2c2oc(C(=O)N3CCOCC3)cc21               3
3  CCCCn1c2cc(C(F)(F)F)ccc2c2oc(C(=O)N3CCOCC3)cc21               3
4  COC(=O)n1c2cc(C)ccc2c2oc(C(=O)N3CCOCC3)cc21               2
5  CC(C)COC(=O)n1c2cc(C(F)(F)F)ccc2c2oc(C(=O)N3CCOCC3)cc21               2
6  CCCCOC(=O)n1c2cc(C)ccc2c2oc(C(=O)N3CCOCC3)cc21               1

Fill in the blank: the reported Inhibition of CC(C)CCCn1c2cc(C(F)(F)F)ccc2c2oc(C(=O)N3CCOCC3)cc21 is ____.
3

Reported Inhibition for CCCCC(=O)n1c2cc(C(F)(F)F)ccc2c2oc(C(=O)N3CCOCC3)cc21 : what is it?
3

Could you tell me which Inhibition is on file for CCCOC(=O)n1c2cc(F)ccc2c2oc(C(=O)N3CCOCC3)cc21 ?
1

Look at this compound and give its reported Inhibition. CC(C)(C)C(=O)n1c2cc(C(F)(F)F)ccc2c2oc(C(=O)N3CCOCC3)cc21
1
